All values here come from patent US20110293610A1.

- Target Entity: LIGHT (human, UniProt O43557 74-240, limits assumed)
- Sequence (O43557 74-240 limits assumed): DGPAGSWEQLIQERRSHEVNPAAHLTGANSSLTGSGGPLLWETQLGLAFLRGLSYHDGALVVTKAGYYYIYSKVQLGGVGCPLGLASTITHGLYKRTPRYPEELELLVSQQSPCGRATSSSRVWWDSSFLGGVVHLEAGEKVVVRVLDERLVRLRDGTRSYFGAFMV
- Protocol Text: phage ELISA
Quantity Kind: binding result

- I078D02 (scFv) scFv: QVQLQQSGAEVKKPGASVKVSCKASGYTFTSYGISWVRQAPGQGLEWMGWISAYNGNTNYAQKLQGRVTMTTDTSTSTAYMELRSLRSDDTAVYYCARVYYDILTGYNLFFDYWGKGTMVTVSSGGGGSGGGGSGGGGSQSVLTQPASVSGSPGQSITISCTGTSSDVGGYNYVSWYQQHPGKAPKLMIYEGSKRPSGVSNRFSGSKSGNTASLTISGLQAEDEADYYCSSYTTRSTRVFGGGTKLTVLG: no binding
- I067F05 (scFv) scFv: QVQLQQSGAEVKKPGSSVKVSCKASGGTFSSYAISWVRQAPGQGLEWMGRIIPIVNMANYAQKFQGRVTLTADKSTGTAYMELTSLRSEDTAVYYCARENYDSLTGYYGAFDIWGKGTMVTVSSGGGGSGGGGSGGGGSQSVLTQPASVSGSPGQSITISCTGTSSDVGGYNYVSWYQQHPGKAPKLMIYEGSKRPSGVSNRFSGSKSGNTASLTISGLQAEDEADYYCSSYTTRSTRVFGGGTKLTVLG: no binding
- I030A10 (scFv) scFv: QVQLVQSGAEVKKPGSSVKVSCRASGGSFNHAISWVRQAPGRGLEWMGGILPMYGTANYAQKFQGRVTITADKLTNTVYMDLSRLRYEDTAVYYCARELGLSIVGATTGALDMWGRGTLVTVSSGGGGSGGGGSGGGGSAQAVLTQPSSVSGAPGQRVIISCTGSSSNIGPDYDVHWYQQLPGTAPKLLIYGNNNRPSGVPDRFSGSKSGTSASLAITGLQAEDEAHYYCQSYGSSLSGVVFGGGTKVTVLG: no binding
